# Tested on: A498 renal
# ASSAY EXPLANATION: NCI-60 one-dose screen, 48 h (100 = growth as untreated, 0 = no growth, -100 = all killed)
# MEASUREMENT CONTEXT: 10 µM unless noted
The panel holds about 83,000 compounds, 20% with a hit somewhere; the sample as a whole holds those more often.
Decision: growth compared against 80%; not below it gives condition met, below it gives condition not met.

COMPOUND STRUCTURE	TGT	CLASS NAME
C[C@]12CC[C@@H]3c4ccc(O)cc4CC[C@H]3[C@@H]1C[C@H](O)[C@@H]2O	A498 renal	condition met
COC(c1ccccc1)(c1ccccc1)c1ccccc1	A498 renal	condition met
CC1(C)[C@@H](O)CC[C@]2(C)[C@H]3CC[C@@H]4[C@H]5[C@H](C(=O)/C=C/c6ccc(C(F)(F)F)cc6)CC[C@]5(CO)CC[C@@]4(C)[C@]3(C)CC[C@@H]12	A498 renal	condition not met
Cc1cc(N2CCCCC2)nc(N(CCCNc2ccnc3cc(Cl)ccc23)Cc2ccco2)n1	A498 renal	condition not met
CN(C)c1ccc(-c2ccc(-c3ccc(C(=N)N)c(F)c3)s2)cc1	A498 renal	condition not met
Cn1c(=O)c2c(nc(Br)n2CC(=O)Nc2ccc(F)cc2)n(C)c1=O	A498 renal	condition met

All figures here come from PubChem BioAssay (NCI).
